test: Plasma and tumor compound concentrations in CT26 tumor-bearing mice (LC-MS/MS); format: in vivo, BALB/c mice; settings: BALB/c, mouse, plasma, intravenous; 0.375 mg/kg single i.v., 8 h (Table 3); read-out: Plasma Conc.
Counter-ions that a name gives are not always drawn.
Assay readout: concentration at 8 h (nM)
Answers are plain numbers, in nM.

Give the value of concentration at 8 h reported for the following: CCn1nc(C)cc1C(=O)Nc1nc2cc(C(N)=O)cc3c2n1C/C=C/Cn1c(NC(=O)c2cc(C)nn2CC)nc2cc(C(=O)N[C@H]4CC[C@H](C(=O)O)CC4)cc(c21)OCCCO3 [Compound 2, sodium salt]
80
